MEASURED_TARGET: α-chymotrypsin (Bos taurus, UniProt P00766)
ASSAY_METHOD_TEXT: Chymotrypsin inhibitory activity of peptides (AAPFpNA hydrolysis; IC50, Ki, residual activity)
Assay type: biochemical
CONDITION_SUMMARY: peptide 1 μM
Bridge positions count the residues as written; N and C are the ends. Peptide text beside a SMILES is read from it.
MEASUREMENT_KIND: Residual activity of chymotrypsin (%)
Hi! Could you send only the number? It should be in %, unit omitted.

MOLECULE	VAL
CC[C@H](C)[C@@H]1NC(=O)[C@@H]2CCCN2C(=O)[C@@H]2CCCN2C(=O)[C@H]([C@@H](C)CC)NC(=O)[C@H](CO)NC(=O)[C@H](Cc2ccccc2)NC(=O)[C@H]([C@@H](C)O)NC(=O)[C@H](C)NC(=O)[C@H]([C@@H](C)O)NC(=O)CNC(=O)[C@@H](N)CSSC[C@@H](C(=O)N[C@@H](CC(N)=O)C(=O)O)NC1=O [CH27] (H-CGTATFSIPPICN-OH; disulfide 1-12; N-terminus and C-terminus assumed)	106.0
CC[C@H](C)[C@@H]1NC(=O)[C@H](CO)NC(=O)[C@H](Cc2ccc(O)cc2)NC(=O)[C@H]([C@@H](C)O)NC(=O)[C@H](C)NC(=O)[C@H](C)NC(=O)CNC(=O)[C@@H](N)CSSC[C@@H](C(=O)N[C@@H](Cc2ccccc2)C(=O)O)NC(=O)[C@H](CCCCN)NC(=O)[C@H](C)NC(=O)[C@@H]2CCCN2C1=O [CH31] (H-CGAATYSIPAKCF-OH; disulfide 1-12; N-terminus and C-terminus assumed)	104.8
CC[C@H](C)[C@@H]1NC(=O)[C@H](CO)NC(=O)[C@H](Cc2ccccc2)NC(=O)[C@H]([C@@H](C)O)NC(=O)[C@@H](NC(=O)[C@@H](N)CC(C)C)CSSC[C@@H](C(=O)N[C@@H](Cc2ccc(O)cc2)C(=O)NCC(=O)O)NC(=O)[C@H](CCC(N)=O)NC(=O)[C@@H]2CCCN2C(=O)[C@@H]2CCCN2C1=O [CH1] (H-LCTFSIPPQCYG-OH; disulfide 2-10; N-terminus and C-terminus assumed)	55.0

Return the recorded Residual activity of chymotrypsin value; entry: CC[C@H](C)[C@@H]1NC(=O)[C@H](CO)NC(=O)[C@H](Cc2ccc(O)cc2)NC(=O)[C@H]([C@@H](C)O)NC(=O)[C@H](C)NC(=O)[C@H](C)NC(=O)CNC(=O)CNC(=O)[C@@H](N)CSSC[C@@H](C(=O)N[C@@H](Cc2ccccc2)C(=O)O)NC(=O)[C@H](CCCCN)NC(=O)[C@H](C)NC(=O)[C@@H]2CCCN2C1=O [CH32] (H-CGGAATYSIPAKCF-OH; disulfide 1-13; N-terminus and C-terminus assumed)
99.0
